Entries and their solubility kinetic
CONDITION SET: buffer; pH 7.4; 200.0 µM
Report only the number, with the unit µg/mL understood.

Recorded results for 8 compounds are shown here.
{"columns": ["COMPOUND", "UNITS LABEL", "solubility kinetic"],
 "data": [
  ["N#Cc1cnc(N)c(Br)c1", "µg/mL", 27.8],
  ["COC(=O)c1ccc(NC(=O)C2CC(=O)OC2c2ccccc2)cc1 (configuration not stated)", "µg/mL", 36],
  ["Cc1cc(C)cc(OCC(=O)Nc2nc(-c3cccnc3)cs2)c1", "µg/mL", 3.2],
  ["Cc1cc(=O)[nH]c2c(C)cc(S(=O)(=O)N3CCCCC3)cc12", "µg/mL", 2.6],
  ["N#CC1(NC(=O)Cn2cc(C(F)(F)F)cc(Cl)c2=O)CCCCC1", "µg/mL", 13.8],
  ["COc1cc(OC)c(C(=O)Nc2ccncc2)cc1OC", "µg/mL", 42.6],
  ["CCOc1ccccc1N1CC(C(=O)NC2CCCCCC2)CC1=O (configuration not stated)", "µg/mL", 45.7],
  ["COc1ccccc1OCCNC(=O)Nc1ccc(Br)cc1", "µg/mL", 1.3]
]}

Prompt: What value of solubility kinetic has been reported for the following compound? CCOC(=O)c1cnc(Nc2ccccc2)nc1C(F)(F)F
Completion: 2.1

* * *

CONDITION SET: buffer; pH 7.4; 200.0 µM
Entries and their log10(solubility kinetic)
A difference of one corresponds to tenfold solubility kinetic; all values are log10 with solubility kinetic in µg/mL.

Recorded results for 5 molecules are shown here.
{"columns": ["RECORD SMILES", "RESULT NUMBER"],
 "data": [
  ["COc1ccc(C(=O)c2ccccc2)c(OCC(=O)NC2CC2)c1", 1.50],
  ["COc1cccc(/C=C/c2ccc3cccc(O)c3n2)c1", -0.15],
  ["Cc1cccc(OCC(=O)NCc2ccc(F)cc2)c1", 1.37],
  ["CC(C)Oc1ccc(S(=O)(=O)N2CCOCC2)cc1NC(=O)Cc1ccsc1", 1.50],
  ["COc1ccc(OC)c(NC(=O)Nc2cnccn2)c1", 0.52]
]}

Prompt: What value of log10(solubility kinetic) has been reported for the following molecule? O=C(Cc1cccc(F)c1)Nc1ccc2c(c1)CCC2
Completion: 0.08

Prompt: Then Cc1cccc(NC(=O)CCNC(=O)c2ccccc2)c1 ?
Completion: 1.62

* * *

CONDITION SET: buffer; pH 7.4; 200.0 µM
MEASUREMENT KIND: solubility kinetic (µg/mL)
Report only the number, with the unit µg/mL understood.

Recorded results for 4 molecules are shown here.
{"columns": ["MOLECULE", "UNITS LABEL", "solubility kinetic"],
 "data": [
  ["CC1CCCCN1CCCNc1c(C=O)c(=O)[nH]c2ccccc12 (stereo unspecified)", "µg/mL", 46.7],
  ["Cn1c(N)c(C(=O)COC(=O)/C=C/c2ccccc2F)c(=O)n(C)c1=O", "µg/mL", 5.5],
  ["O=[N+]([O-])c1ccc2ncnc(Nc3ccc4c(c3)OCCO4)c2c1", "µg/mL", 0.2],
  ["Cc1c(C(=O)N2CCC[C@H]2CO)oc2c(F)cccc12", "µg/mL", 37]
]}

Prompt: What value of solubility kinetic has been reported for the following molecule? O=c1oc(-c2ccc([N+](=O)[O-])cc2)nc2ccccc12
Completion: 0.3

Prompt: Then COC(=O)C(N)Cc1ccc(O)c(O)c1.Cl (stereo unspecified) ?
Completion: 24.4

Prompt: Then CN(C)c1ccc2nsnc2c1[N+](=O)[O-] ?
Completion: 33.4

Prompt: Then CC1(C)CC(/C=C/c2ccccc2)=Nc2ccccc2N1 ?
Completion: 27.2

Prompt: Then CC(C)(C)c1ccc(-c2noc(CNC(=O)c3ccco3)n2)cc1 ?
Completion: 3.8

* * *

CONDITION SET: buffer; pH 7.4; 200.0 µM
Entries and their solubility kinetic

{"columns": ["COMPOUND", "solubility kinetic"],
 "data": [
  ["Cc1csc(NC(=O)C2CCCCC2)n1", "19.9 µg/mL"],
  ["Cc1nn2c(-c3ccncc3)ccnc2c1Cl", "> 36.7 µg/mL"],
  ["O=C(/C=C/c1ccc([N+](=O)[O-])s1)N1CCCC1", "> 37.8 µg/mL"],
  ["O=c1ccc2ccc(Oc3ccc([N+](=O)[O-])cc3Cl)cc2o1", "2.5 µg/mL"],
  ["Cc1nnc(-c2ccc(N3CCOCC3)c([N+](=O)[O-])c2)o1", "> 43.5 µg/mL"]
]}

Prompt: What value of solubility kinetic has been reported for the following compound? CCOC(=O)C1CCCCN1Cc1cccc(Oc2ccccc2)c1 (stereo unspecified)
Completion: < 0.7 µg/mL

* * *

CONDITION SET: buffer; pH 7.4; 200.0 µM
MEASUREMENT KIND: log10(solubility kinetic) (log10 of the value in µg/mL)
A difference of one corresponds to tenfold solubility kinetic; all values are log10 with solubility kinetic in µg/mL.

Recorded results for 3 compounds are shown here.
{"columns": ["COMPOUND", "log10(solubility kinetic)"],
 "data": [
  ["O=C(Cc1cccs1)NCc1cccc(C(F)(F)F)c1", 1.62],
  ["O=C(Nc1cccc([N+](=O)[O-])c1)c1ccc(N2CCCC2=O)cc1", 0.18],
  ["CC(NC(=O)/C(C#N)=C/c1ccc(OCC(=O)O)cc1)c1ccccc1 (stereo not given)", 1.71]
]}

Let us move to another entry and its log10(solubility kinetic).
Prompt: What value of log10(solubility kinetic) has been reported for the following compound? COc1ccc(CN2CC(C(N)=O)Oc3ccccc32)cc1F (stereo not given)
Completion: 1.55

* * *

CONDITION SET: buffer; pH 7.4; 200.0 µM
MEASUREMENT KIND: solubility kinetic

Recorded results for 3 molecules are shown here.
{"columns": ["MOLECULE", "RESULT"],
 "data": [
  ["Cc1ccc(-c2c(C#N)c(N)nc3c2CCCC3)o1", "4.1 µg/mL"],
  ["O=C(Nc1ccc(F)cc1)c1cccnc1Oc1ccccc1", "4.3 µg/mL"],
  ["CN(C)/C=N/S(=O)(=O)c1ccc(Cl)cc1", "35.8 µg/mL"]
]}

Prompt: What value of solubility kinetic has been reported for the following molecule? CCCOc1ccc(CSC(=N)N)cc1C(=O)OC.Cl
Completion: 42.6 µg/mL

Prompt: Then Nn1c(Nc2ccc(Cl)cc2)nncc1=O ?
Completion: > 35.6 µg/mL

Prompt: Then CC(C)CC(=O)Nc1ccc2c(c1)nc(CCN1CCOCC1)n2C ?
Completion: > 51.7 µg/mL

* * *

CONDITION SET: buffer; pH 7.4; 200.0 µM
MEASUREMENT KIND: solubility kinetic (µg/mL)
Report only the number, with the unit µg/mL understood.

Recorded results for 4 compounds are shown here.
{"columns": ["RECORD SMILES", "UNITS LABEL", "RESULT NUMBER"],
 "data": [
  ["Cc1cc(NC(=O)Cn2cnc3sc(C)c(C)c3c2=O)no1", "µg/mL", 17.3],
  ["NS(=O)(=O)c1cccc(NC(=O)CC2(CC(=O)O)CCCC2)c1", "µg/mL", 41.7],
  ["Cc1ccc2c(c1)/C(=C/c1ccccc1F)C(=O)N2", "µg/mL", 1.3],
  ["CCOc1cc2c(C#N)c(N3CCCCC3)nc(N)c2c(N)n1", "µg/mL", 10.6]
]}

Prompt: What value of solubility kinetic has been reported for the following compound? CC(C)(C)C(=O)N/C(N)=N/c1nc2ccccc2o1
Completion: 8.1

Prompt: Then CCSc1nsc(NC(=O)Nc2ccccc2F)n1 ?
Completion: 1.4

Prompt: Then O=C(Nc1ccc2c(c1)OCO2)c1ccc([N+](=O)[O-])cc1[N+](=O)[O-] ?
Completion: 10.6

Prompt: Then CC(=O)c1c(C)[nH]c(C(=O)CN2CCN(S(=O)(=O)c3ccccc3F)CC2)c1C ?
Completion: 6.4

* * *

CONDITION SET: buffer; pH 7.4; 200.0 µM
Returns one of yes or no; yes when solubility kinetic is >= 5 µg/mL.

Prompt: Please check the record CN1C2CCC1CC(NC(=O)c1cccc(C(F)(F)F)c1)C2 (stereo unspecified) and state if its solubility kinetic is at or above 5 µg/mL.
Completion: yes

Prompt: Then CC(CN1C(C)CCCC1C)OC(=O)c1ccccc1Cl (stereo unspecified) ?
Completion: yes

Prompt: Then COc1ccc(Cl)cc1S(=O)(=O)Nc1ccc(Cl)cn1 ?
Completion: no

Prompt: Then Fc1cc(Cl)c(OCc2noc(-c3ccsc3)n2)c(Cl)c1 ?
Completion: no

Prompt: Then Cc1cc(C)c(-c2cc(C)nc3ncnn23)c(C)c1 ?
Completion: yes

Prompt: Then Nc1cc(C(=O)O)ccc1Sc1ccccc1C(=O)O ?
Completion: yes

* * *

CONDITION SET: buffer; pH 7.4; 200.0 µM
Entries and their log10 of solubility kinetic
A difference of one corresponds to tenfold solubility kinetic; all values are log10 with solubility kinetic in µg/mL.

Recorded results for 5 molecules are shown here.
{"columns": ["MOLECULE", "log10 of solubility kinetic"],
 "data": [
  ["Cc1ccc(SCC(=O)N2CCN(S(=O)(=O)c3cccs3)CC2)cc1", 1.26],
  ["Cc1cc(C(=O)COc2ccccc2C(N)=O)c(C)n1C1CC1", 0.85],
  ["O=C(O)/C=C/c1cccc(NC(=O)c2ccccc2)c1", 1.53],
  ["Cc1ccc2nc(N3CCOCC3)c(C=O)cc2c1", 1.41],
  ["CC(CNC(=O)c1ccco1)NC(=O)c1ccco1 (stereo not given)", 1.59]
]}

Prompt: What value of log10 of solubility kinetic has been reported for the following molecule? O=C(CCSCc1ccccc1)Nc1ccc2c(c1)OCCO2
Completion: 1.53

Prompt: Then CSc1ccc(CN(C)C(=O)C(c2ccccc2)c2ccccc2)cc1 ?
Completion: 0.89

Prompt: Then COc1ccc(CC(=O)NCc2nc(-c3ccccc3)no2)cc1 ?
Completion: 1.13

Prompt: Then Cc1nc(/C(N)=N/OC(=O)c2c(-c3ccccc3Cl)noc2C)cs1 ?
Completion: 1.68

Prompt: Then O=C(Nc1ccccc1N1CCOCC1)c1ccc2ccccc2c1 ?
Completion: -0.10

Prompt: Then O=C(CN1C(=O)NC2(CCCC2)C1=O)Nc1ccccc1N1CCCC1 ?
Completion: 1.67
